procedure-text: Phase 2A study (Magnolia) in women with postpartum depression: ganaxolone plasma concentrations / pharmacokinetics
run-conditions: female, human, plasma, iv, 150 ug/kg, AUC12-48, calculated from Table 1C; dose 150 μg/kg/hr (row order of Table 1C)
recorded-metric: AUC (ng·h/mL)
Write the number in ng·h/mL without appending the unit.

Lookup result for CC(=O)[C@H]1CC[C@H]2[C@@H]3CC[C@H]4C[C@](C)(O)CC[C@]4(C)[C@H]3CC[C@]12C [ganaxolone, 3α-hydroxy-3β-methyl-5α-pregnan-20-one] ; measured AUC: 5820

* * *

procedure-text: Phase 2A study (Magnolia) in women with postpartum depression: ganaxolone plasma concentrations / pharmacokinetics
run-conditions: female, human, plasma, iv, 86 ug/kg, AUC12-24, calculated from Table 1C; dose 86 μg/kg/hr (row order of Table 1C)
Protocol: Approximately 200 women with PPD 18 to 45 years of age are screened to randomize up to 100 subjects across up to 6 cohorts. Approximately 10-30 subjects are randomized into each cohort. Randomized subjects receive the investigational product (IP), ganaxolone or matching placebo in a 1:1 ratio. In Cohorts 1-5 the IP is administered intravenously over 60 hours. In Cohort 6 the dosing is initiated with a 6-hour intravenous (IV) infusion followed by oral dosing for 28 days plus 3-day taper. […]
recorded-metric: AUC (µg·h/mL)
Write the number in µg·h/mL without appending the unit.

Lookup result for CC(=O)[C@H]1CC[C@H]2[C@@H]3CC[C@H]4C[C@](C)(O)CC[C@]4(C)[C@H]3CC[C@]12C [ganaxolone, 3α-hydroxy-3β-methyl-5α-pregnan-20-one] ; measured AUC: 1.04
